- Assay system: CD3ε homodimer protein (human) (UniProt P07766)
- Sequence (P07766 23-126 limits assumed): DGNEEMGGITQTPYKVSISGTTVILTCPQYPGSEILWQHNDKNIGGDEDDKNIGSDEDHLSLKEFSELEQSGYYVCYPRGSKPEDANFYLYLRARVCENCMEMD
- Assay comment: SPR
This section presents binders with their documented KD ratio to GLS3000 values.
Just the number, please, no unit attached.

GLS3000 N28D (antibody, name in Kabat numbering, V domains shown) VH: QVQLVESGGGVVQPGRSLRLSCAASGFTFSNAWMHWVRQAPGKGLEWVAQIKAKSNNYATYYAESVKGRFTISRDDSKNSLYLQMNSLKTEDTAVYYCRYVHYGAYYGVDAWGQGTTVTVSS VL: DIVMTQSPLSLPVTPGEPASISCRSSQSLVHSDRNTYLHWYQQKPGQAPRLLIYKVSNRFSGVPDRFSGSGSGTDFTLKISRVEAEDVGVYYCGQGTQVPYTFGQGTKLEIK = 4460

Challenge: Return KD ratio to GLS3000 for the following binder: GLS3000 G91S (antibody, name in Kabat numbering, V domains shown) VH: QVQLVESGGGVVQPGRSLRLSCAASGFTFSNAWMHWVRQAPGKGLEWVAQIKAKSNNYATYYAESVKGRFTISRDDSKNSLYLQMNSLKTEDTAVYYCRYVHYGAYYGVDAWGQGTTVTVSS VL: DIVMTQSPLSLPVTPGEPASISCRSSQSLVHSNRNTYLHWYQQKPGQAPRLLIYKVSNRFSGVPDRFSGSGSGTDFTLKISRVEAEDVGVYYCGQSTQVPYTFGQGTKLEIK
Response given: 72100
